# Test system: MPH (2′)-II from B. paraconglomeratum (mphE)
# Construct: codon-optimised synthetic gene in pET28b (NdeI/HindIII), E. coli BL21(DE3); IMAC and gel filtration
# experiment: pyruvate kinase/lactate dehydrogenase coupled assay, NADH absorbance at […] nm
# Format: biochemical, Brachybacterium paraconglomeratum
# conditionLabel: GTP 200 µM
Assignment: determine reported Km for the given molecules.
Write the number in µM without appending the unit.

Exercise: Field request: Km | item: CC[C@H]1OC(=O)[C@H](C)[C@@H](O[C@H]2C[C@@](C)(OC)[C@@H](O)[C@H](C)O2)[C@H](C)[C@@H](O[C@@H]2O[C@H](C)C[C@H](N(C)C)[C@H]2O)[C@](C)(O)C[C@@H](C)C(=O)[C@H](C)[C@@H](O)[C@]1(C)O
Solution: 43.8

Exercise: Also CC[C@H]1OC(=O)[C@H](C)[C@@H](O[C@H]2C[C@@](C)(OC)[C@@H](O)[C@H](C)O2)[C@H](C)[C@@H](O[C@@H]2O[C@H](C)C[C@H](N(C)C)[C@H]2O)[C@](C)(O)C[C@@H](C)CN(C)[C@H](C)[C@@H](O)[C@]1(C)O ?
Solution: 54

Exercise: And CC[C@H]1OC(=O)[C@H](C)[C@@H](O[C@H]2C[C@@](C)(OC)[C@@H](O)[C@H](C)O2)[C@H](C)[C@@H](O[C@@H]2O[C@H](C)C[C@H](N(C)C)[C@H]2O)[C@](C)(O)C[C@@H](C)/C(=N\OCOCCOC)[C@H](C)[C@@H](O)[C@]1(C)O ?
Solution: 59

Exercise: Now the molecule CC[C@H]1OC(=O)[C@H](C)[C@@H](O[C@H]2C[C@@](C)(OC)[C@@H](O)[C@H](C)O2)[C@H](C)[C@@H](O[C@@H]2O[C@H](C)C[C@H](N(C)C)[C@H]2O)[C@](C)(OC)C[C@@H](C)C(=O)[C@H](C)[C@@H](O)[C@]1(C)O
Solution: 21.9
